# credit: patent US12037324B2

Target: hAT1R (Homo sapiens, UniProt P30556)
Sequence (P30556 1-359): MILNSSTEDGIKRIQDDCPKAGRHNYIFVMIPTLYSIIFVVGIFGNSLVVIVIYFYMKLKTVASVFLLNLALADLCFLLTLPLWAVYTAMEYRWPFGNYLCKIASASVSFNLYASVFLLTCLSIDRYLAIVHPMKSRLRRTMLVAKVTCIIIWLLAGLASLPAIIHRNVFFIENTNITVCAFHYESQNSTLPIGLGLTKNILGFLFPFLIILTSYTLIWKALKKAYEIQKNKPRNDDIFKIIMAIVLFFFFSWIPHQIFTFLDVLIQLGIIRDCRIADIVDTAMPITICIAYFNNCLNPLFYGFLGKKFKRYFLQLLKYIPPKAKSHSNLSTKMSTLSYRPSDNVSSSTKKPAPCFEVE
Experiment: BRET β-arrestin2 biosensor assay, higher receptor expression (hAT1R 5 ng/well), HEK293 cells
Format: cell-based
Settings: High AT1R Expression
OUTCOME_MEASURE: EC50 (nM)

1) CCCCc1nc(Cl)c(C(=O)O)n1Cc1ccc(-c2cc(-c3cccc(C(F)F)n3)ccc2-c2nn[nH]n2)cc1 [Example 423] ... 26
2) CCc1nc2c(C)cc(C)nc2n1Cc1ccc(-c2cc(-c3cccnc3OC)ccc2-c2nn[nH]n2)cc1 [Example 24] ... 13.5
3) CCc1nc2c(C)cc(C)nc2n1Cc1ccc(-c2cc(-c3ccccc3O)ccc2-c2nn[nH]n2)cc1 [Example 10] ... 1.4
4) CCCCc1nc(Cl)c(C(N)=O)n1Cc1ccc(-c2cc(-c3ccccc3)ccc2-c2noc(=O)[nH]2)cc1 [Example 394] ... 37.3
5) CCCCC(=O)N(Cc1ccc(-c2cc(Oc3cccc(OC(F)(F)F)c3)ccc2-c2nn[nH]n2)cc1)[C@H](C(=O)O)C(C)C [Example 437] ... 168
6) CCCCc1nc(Cl)c(C(=O)O)n1Cc1ccc(-c2cc(N3CC(C)(C)c4ccccc43)ccc2-c2noc(=O)[nH]2)cc1 [Example 405] ... 42
7) CCCC1=NC2(CCCC2)C(=O)N1Cc1ccc(-c2cc(N3CCC[C@@H](C)C3)ccc2-c2nn[nH]n2)cc1 [Example 117] ... 94.2
8) CCc1nc2c(C)cc(C)nc2n1Cc1ccc(-c2cc(-c3ccccc3C)ccc2-c2nn[nH]n2)cc1 [Example 2] ... 11.3
9) CCCCC(=O)N(Cc1ccc(-c2cc(-c3ccccc3)ccc2-c2nn[nH]n2)cc1)C1(C(=O)O)Cc2ccccc2C1 [Example 279] ... 210
10) CCCCC1=NC2(CCCC2)C(=O)N1Cc1ccc(-c2cc(-c3cccc(F)c3)ccc2-c2nn[nH]n2)cc1 [Example 127] ... 23.6
11) CCCCC1=NC2(CCCC2)C(=O)N1Cc1ccc(-c2cc(-c3cncc(OC)c3)ccc2-c2nn[nH]n2)cc1 [Example 132] ... 496
12) CCCCc1ncc(C(=O)NC2CC3(CCC3)C2)n1Cc1ccc(-c2cc(-c3ccccc3)ccc2-c2nn[nH]n2)cc1 [Example 351] ... 38.9
13) CCc1nc2c(C)cc(C)nc2n1Cc1ccc(-c2cc(Oc3cccnc3)ccc2-c2noc(=O)[nH]2)cc1 [Example 259] ... 6.9
14) CCc1nc2c(C)cc(C)nc2n1Cc1ccc(-c2cc(-c3ccccc3F)ccc2-c2nn[nH]n2)cc1 [Example 19] ... 2.4
15) CCCCc1ncc(C(=O)NCCC(C)(C)O)n1Cc1ccc(-c2cc(-c3ccccc3)ccc2-c2nn[nH]n2)cc1 [Example 350] ... 15.6
16) CCCCC(=O)N(Cc1ccc(-c2cc(-c3ccccc3)ccc2-c2nn[nH]n2)nc1)C1(C(=O)O)CCCCC1 [Example 273] ... 23.2
17) CCc1nc2c(C)cc(C)nc2n1Cc1ccc(-c2cc(-c3cn(CC4CC4)nn3)ccc2-c2nnn[nH]2)cc1 [Example 237] ... 16.3
18) CCCCc1nc(Cl)c(C(=O)O)n1Cc1ccc(-c2cc(-c3cnn(C4CC4)c3)ccc2-c2nn[nH]n2)cc1 [Example 386] ... 45.2
19) CCc1nc2c(C)cc(C)nc2n1Cc1ccc(-c2cc(-c3ccccc3O)ccc2C(=O)O)cc1 [Example 184] ... 14.7
